# Test system: MDA-MB-468 cancer cell line
# assay info: Cell growth assay (WST-8)
# Assay type: cell-based
# run conditions: Homo sapiens, MDA-MB-468, 96 h; WST-8, 4 days; read-out: Inhibition of cell growth IC50, MDA-MB-468 cancer cell line
Below is a list of entries, each paired with its recorded IC50 value.

Solved entries:
compound	assayed system	reported endpoint	measured
CCCCCCCCCCCCCCCCNC(=O)[C@H](CCC(N)=O)NC(=O)[C@@H]1CC[C@@H]2CCCC[C@H](NC(=O)[C@H](Cc3ccc(OP(=O)(O)O)cc3)NC(=O)CCN3CCN(C)CC3)C(=O)N21	MDA-MB-468 cancer cell line	IC50	> 20 µM
N=C(N)NCCC[C@H](NC(=O)[C@@H]1CC[C@@H]2CCCC[C@H](NC(=O)[C@@H](N)Cc3ccc(OP(=O)(O)O)cc3)C(=O)N21)C(=O)NCc1ccccc1 [Example 12]	MDA-MB-468 cancer cell line	IC50	> 100 µM
CCCCCCCCCCCCCCCCN1CCN(CCC(=O)N[C@@H](Cc2ccc(CP(=O)(O)O)cc2)C(=O)N[C@H]2CCCCC3CC[C@@H](C(=O)N[C@@H](CCC(N)=O)C(=O)NCc4ccccc4)N3C2=O)CC1 (some centres unmarked)	MDA-MB-468 cancer cell line	IC50	> 100 µM

Annotate the compound CCCCCCCCCCCCCCCCNC(=O)[C@H](CCC(N)=O)NC(=O)[C@@H]1CC[C@@H]2CCCC[C@H](NC(=O)[C@H](Cc3ccc(OP(=O)(O)O)cc3)NC(=O)CCN3CCOCC3)C(=O)N21 with its measured IC50.
< 40 µM

Annotate the compound NC(=O)CCCNC(=O)[C@@H]1CCC2CCCC[C@H](NC(=O)[C@H](Cc3ccc(OP(=O)(O)O)cc3)NC(=O)OCc3ccccc3)C(=O)N21 (some centres unmarked) [Example 16] with its measured IC50.
> 100 µM

----------
# Test system: MDA-MB-468 cancer cell line
# assay info: Cell growth assay (WST-8)
# Type: cell-based
# run conditions: Homo sapiens, MDA-MB-468, 96 h; WST-8, 4 days; read-out: Inhibition of cell growth IC50, MDA-MB-468 cancer cell line
Below is a list of entries, each paired with its recorded IC50 value.

Solved entries:
molecule	IC50
CN(C)[C@@H](Cc1ccc(OCP(=O)(O)O)cc1)C(=O)NC1CCCC[C@H]2CC[C@@H](C(=O)N[C@@H](Cc3c[nH]cn3)C(=O)NCc3ccccc3)N2C1=O (stereo in doubt) [Example 33]	> 100 µM
Cn1c(C(=O)N[C@H]2CCCCC3CC[C@@H](C(=O)NC(CCC(N)=O)C(=O)NCc4ccccc4)N3C2=O)cc2cc(C(F)(F)P(=O)(O)O)ccc21 (some centres unmarked) [Example 61]	> 100 µM
NC(=O)CC[C@H](NC(=O)[C@@H]1CCC2CCCC[C@H](NC(=O)CCc3ccc(OP(=O)(O)O)cc3)C(=O)N21)C(=O)NCc1ccccc1 (some centres unmarked)	> 100 µM
CCCCCCCCCCCCCCCCN1CCN(CCC(=O)N[C@@H](Cc2ccc(OP(=O)(O)O)cc2)C(=O)N[C@H]2CCCCC3CC[C@@H](C(=O)NCCCCNC)N3C2=O)CC1 (some centres unmarked)	< 50 µM
CCCCCCCCCCCCCCCCN1CCN(CCC(=O)N[C@@H](Cc2ccc(OP(=O)(O)O)cc2)C(=O)N[C@H]2CCCCC3CC[C@@H](C(=O)NCCN4CCNC4=O)N3C2=O)CC1 (some centres unmarked)	< 20 µM

Annotate the molecule NCCOCCOCCOCCOCCC(=O)N[C@@H](Cc1ccc(OP(=O)(O)O)cc1)C(=O)N[C@H]1CCCCC2CC[C@@H](C(=O)N[C@@H](CCC(N)=O)C(=O)NCc3ccccc3)N2C1=O (some centres unmarked) with its measured IC50.
> 100 µM

Annotate the molecule N=C(N)NCCC[C@H](NC(=O)[C@@H]1CC[C@@H]2CCCC[C@H](NC(=O)[C@H](Cc3ccc(OP(=O)(O)O)cc3)NC(=O)OCc3ccccc3)C(=O)N21)C(=O)NCc1ccccc1 [Example 11] with its measured IC50.
> 100 µM
